Biological target: pre-pro-insulin glargine
VALUE_TYPE: Yield

## Input Find the measured Yield of trypsin variant SEQ ID NO: 53 (protein) IVGGYTCAANSIPYQVSLNSGSHRCGGSLINSQWVVSAAHCYKPRIQVRLGEHNIDVLEGNEQFINAAKIITHPNFNGNTLDNDIMLIKLSSPATLNSRVATVSLPRSCAAAGTECLISGWGNTKSSGSSYPSLLQCLKAPVLSDSSCKSSYPGQITGNMICVGFLEGGKDACQGDSGGPVVCNGQLQGIVSSGYGCAQKNKPGVYTKVCNYVNWIQQTIAAN and report it.
## Output > 80%

## Input Find the measured Yield of trypsin variant SEQ ID NO: 92 (protein) IVGGYTCAANSIPYQVSLNSGSHRCGGSLINSQWVVSAAHCYKPRIQVRLGEHNIHVLEGNEQFINAAKIITHPNFNPNTLDNDIMLIKLSSPATLNSAVATVSLPTSCAAAGTECLISGWGNTCSSGSSMPSLLQCLKAPVLSDSSCKSSYPGQITGNMICVGFLEGGKDACQGDSGGPVVCNGQLQGIVSSGYGCAQKNKPGVYTKVCNYVNWIQQTIAAN and report it.
## Output > 90%

## Input Find the measured Yield of trypsin variant SEQ ID NO: 25 (protein) IVGGYTCAANSIPYQVSLNSGSHRCGGSLINSQWVVSAAHCYKSRIQVRLGEHNIDVLEGNEQFINAAKIITHPNFNGNTLDNDIMLIKLSSPATLNSRVATVSLPRSCAAAGTECLISGWGNTKSSGSSYPSLLQCLKAPVLSDSSCKSSYPGQITGNMICVGFLEGGADACQGDSGGPVVCNGQLQGIVSSGYGCAQKNKPGVYTKVCNYVNWIQQTIAAN and report it.
## Output > 80%

## Input Find the measured Yield of trypsin variant SEQ ID NO: 116 (protein) IVGGYTCAANSIPYQVSLNSGSHRCGGSLINSQWVVSAAHCYKPRIQVRLGEHNIHVLEGNEQFINAAKIITHPNFNGNTLDNDIMLIKLSSPATLNSNVATVSLPTSCAAAGTECLISGWGNTSSSGSSMPSLLQCLKAPVLSDSSCKSSYPGQITGNMICVGFLEGGADACQGDSGGPVVCNGQLQGIVSSGYGCAQKNKPGVYTKVCNYVNWIQQTIAAN and report it.
## Output > 90%

## Input Find the measured Yield of trypsin variant SEQ ID NO: 73 (protein) IVGGYTCAANSIPYQVSLNSGSHRCGGSLINSQWVVSAAHCYKSRIQVRLGEHNIDVLEGNEQFINAAKIITHPNFNANTLDNDIMLIKLSSPATLNSRVATVSLPRSCAAAGTECLISGWGNTKSSGSSYPSLLQCLKAPVLSDSSCKSSYPGQITGNMICVGFLEGGKDACQGDSGGPVVCNGQLQGIVSSGYGCAQKNKPGVYTKVCNYVNWIQQTIAAN and report it.
## Output > 90%

Entry source: patent US20230303994
